// provenance: patent US20250019387A1

- Measured On: KRAS G12C and cRAF (Ras-binding domain) interaction (Homo sapiens (Human), UniProt P01116, C118S/C51S/C80L/G12C)
- Sequence (P01116 other isoform, or with tags, fused parts or gaps G12C/C51S/C80L/C118S): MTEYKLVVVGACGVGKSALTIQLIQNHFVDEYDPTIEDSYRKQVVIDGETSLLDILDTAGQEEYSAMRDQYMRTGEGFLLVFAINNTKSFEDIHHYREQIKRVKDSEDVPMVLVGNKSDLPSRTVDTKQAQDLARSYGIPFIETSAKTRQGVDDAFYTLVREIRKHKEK
- Procedure Text: Inhibition of KRAS G12C and cRAF binding (AlphaScreen)
- Condition Details: GMPPNP-loaded KRAS G12C, 19-20 hours incubation with compound; read-out: IC50 (Inhibition of KRAS G12C and cRAF Binding)
Value Kind: IC50

(Q) # get_value(readout='IC50', item= `Cc1c(F)ccc2c(-c3ncc4c(N(C)[C@@H]5CCN(C(=O)/C=C/[C@H]6CCN6C)C5)nc(OC[C@@]56CCCN5C[C@H](F)C6)nc4c3F)cccc12` )
(A) 100 to 500 nM

(Q) # IC50 lookup, item `COC(=O)/C=C/C(=O)NCCN(C)c1nc(OC[C@@H]2CCCN2C)nc2c1CCN(c1cccc3ccc(F)c(Cl)c13)C2`
(A) 10 to 100 nM

(Q) For the molecule shown here, `CN(CC1CN(C(=O)/C=C/c2nc([C@H]3C[C@@H]3F)no2)C1)c1nc(OC[C@@]23CCCN2C[C@H](F)C3)nc2c(F)c(-c3cccc4cccc(Cl)c34)ncc12` , give the reported IC50.
(A) 10 to 100 nM

(Q) Fill in: IC50 of `CN1C[C@H](O)C[C@H]1C#CC(=O)N1CC[C@@H](N(C)c2nc(OC[C@@]34CCCN3C[C@H](F)C4)nc3c(F)c(-c4cccc5cccc(Cl)c45)ncc23)C1` is ___
(A) < 10 nM

(Q) Which IC50 value is on record for `C=CC(=O)N1CC[C@@H](N(C)c2nc(OCC34CCCN3CCC4)nc3c(F)c(-c4cccc5ccc(F)c(CC)c45)ncc23)C1` ?
(A) 100 to 500 nM

(Q) Find the recorded IC50 belonging to `Cc1c(F)ccc2cccc(-c3ncc4c(N(C)[C@@H]5CCN(C(=O)/C=C/CN(C)C)C5)nc(OC[C@@]56CCCN5C[C@H](F)C6)nc4c3F)c12` and report it.
(A) 10 to 100 nM
